tested on: BT-474; assay: drug sensitivity score (DSS), CellTox Green (DSS (AUC-based score)); higher = stronger drug effect (viability inhibition or cytotoxicity); extreme values may be limits of the assay; conditions: incubation time: 72 h
drug sensitivity score listing for selected molecules.
Lab note: jot down the number only; don't add units.

Examples from the recorded data:
COc1ccc(-c2ccc3c(N4CCOC[C@@H]4C)nc(N4CCOC[C@@H]4C)nc3n2)cc1CO 2.99
Cn1c(=O)n(-c2ccc(C(C)(C)C#N)cc2)c2c3cc(-c4cnc5ccccc5c4)ccc3ncc21 0
CN1CCN(CCOc2cc(OC3CCOCC3)c3c(Nc4c(Cl)ccc5c4OCO5)ncnc3c2)CC1 1.96
Nc1ncnc2c1c(COc1cccc(Cl)c1)nn2C1CCOCC1 0
COc1ccccc1S(=O)(=O)Nc1ccc2c(c1)CN(C)C(=O)N2 0
Nc1nc(OCc2cc(Br)cs2)c2[nH]cnc2n1 0
C/C(=C\c1csc(C)n1)[C@@H]1C[C@@H]2O[C@]2(C)CCC[C@H](C)[C@H](O)[C@@H](C)C(=O)C(C)(C)[C@@H](O)CC(=O)O1 8.09
CC[C@]1(O)C[C@H]2CN(CCc3c([nH]c4ccccc34)[C@@](C(=O)OC)(c3cc4c(cc3OC)N(C=O)[C@H]3[C@@](O)(C(=O)OC)[C@H](OC(C)=O)[C@]5(CC)C=CCN6CC[C@]43[C@@H]65)C2)C1 6.14

Next molecule, please.
Endpoint output: drug sensitivity score of "CN(C)C[C@@H]1CCn2cc(c3ccccc32)C2=C(C(=O)NC2=O)c2cn(c3ccccc23)CCO1" . Value? 17.2

###

system: Hs578T; test: normalised response (% of control), CellTox Green; higher = less cell death (100 = DMSO, 0 = benzethonium chloride kill control); settings: incubation time: 72 h
measured-attribute: normalised response (%)
Write down the numeric answer in % and omit the unit.

molecule	reported-measurement
c1ccc([C@H]2CN3CCSC3=N2)cc1 [Levamisole] (10000 nM)	72
CO[C@H]1C[C@@H]2CC[C@@H](C)[C@@](O)(O2)C(=O)C(=O)N2CCCC[C@H]2C(=O)O[C@H]([C@H](C)C[C@@H]2CC[C@@H](OCCO)[C@H](OC)C2)CC(=O)[C@H](C)/C=C(\C)[C@@H](O)[C@@H](OC)C(=O)[C@H](C)C[C@H](C)/C=C/C=C/C=C/1C [Everolimus] (1 nM)	67.1
O=C(O)CCCc1ccc(N(CCCl)CCCl)cc1 [Chlorambucil] (10000 nM)	124
Nc1nc(OCc2cc(Br)cs2)c2[nH]cnc2n1 [Lomeguatrib] (1000 nM)	100

Endpoint output: normalised response of Nc1ncnc2c1c(COc1cccc(Cl)c1)nn2C1CCOCC1 (10000 nM) . Value? 110

Endpoint output: normalised response of CCCCCCCCc1ccc(CCC(N)(CO)CO)cc1 [Fingolimod] (10000 nM) . Value? 37.8

Endpoint output: normalised response of CN1CCN(CCOc2cc(OC3CCOCC3)c3c(Nc4c(Cl)ccc5c4OCO5)ncnc3c2)CC1 [Saracatinib] (1000 nM) . Value? 83.4

Endpoint output: normalised response of C[C@]12CC[C@H](O)CC1=CC[C@@H]1[C@@H]2CC[C@]2(C)C(c3cccnc3)=CC[C@@H]12 [Abiraterone] (50 nM) . Value? 107

Endpoint output: normalised response of CC(C)(C#N)c1cc(Cn2cncn2)cc(C(C)(C)C#N)c1 [Anastrozole] (10000 nM) . Value? 77.6

Endpoint output: normalised response of O=C1NC(=O)[C@@H](c2cn3c4c(cccc24)CCC3)[C@@H]1c1c[nH]c2ccccc12 [Tivantinib] (100 nM) . Value? 75

Endpoint output: normalised response of CCCCCCCCc1ccc(CCC(N)(CO)CO)cc1 [Fingolimod] (1000 nM) . Value? 106

Endpoint output: normalised response of NS(=O)(=O)OC[C@@H]1C[C@@H](n2ccc3c(N[C@H]4CCc5ccccc54)ncnc32)C[C@@H]1O [Pevonedistat] (1000 nM) . Value? 85

Endpoint output: normalised response of NS(=O)(=O)OC[C@@H]1C[C@@H](n2ccc3c(N[C@H]4CCc5ccccc54)ncnc32)C[C@@H]1O [Pevonedistat] (10000 nM) . Value? 91

Endpoint output: normalised response of O=C(O)CCCc1ccc(N(CCCl)CCCl)cc1 [Chlorambucil] (1000 nM) . Value? 108

// provenance: the supplement of paper PMC4862054
